The origin of these recorded values is PubChem BioAssay (NCI).

# Test system: UO-31 renal
# assay_method_text: NCI-60 one-dose screen, 48 h
# run_parameters: 10 µM unless noted
About 83,000 compounds went through this panel and 20% of them were active in at least one assay; those are over-represented in the sample as a whole. Activity calls are given as the source filed them. How the source made its calls: active means growth percent below 10; inactive means the rest.
// one of TRUE = active, FALSE = inactive, no free text

Query block: Status in this test for `Cc1cc(N[C@@H]2CCC[C@H](Nc3ccnc4cc(Cl)ccc34)C2)nc(N2CCCCCC2)n1` ?
Result block: TRUE

Query block: Status in this test for `CN(C)CCCNc1c2ccccc2nc2ccccc12` ?
Result block: FALSE

Query block: Status in this test for `COc1ccc(-n2nc(C)c3c(Nc4ccc(NC(=O)Nc5ccc(Cl)c(C(F)(F)F)c5)cc4)ncnc32)cc1` ?
Result block: TRUE

Query block: Status in this test for `Brc1ccc(-c2csc(Nc3ccccn3)n2)cc1` ?
Result block: FALSE

Query block: Status in this test for Cc1ccc2c(C(C[N+](=O)[O-])c3ccccc3F)c(-c3ccccc3)[nH]c2c1 (stereo not given) ?
Result block: FALSE

====

# Tested on: A498 renal
# assay_method_text: NCI-60 one-dose screen, 48 h
# run_parameters: 10 µM unless noted
The panel holds about 83,000 compounds, 20% with a hit somewhere; the sample as a whole holds those more often. Activity calls are given as the source filed them. Rule for the calls: active = growth percent below 10; inactive = the rest.
// one of active, inactive, no free text

INSERT INTO measurements (molecule, target_under_test, cat) VALUES
  ('COc1cccc(C2=NN3C(C2)c2cc(Br)cc(OC)c2OC32CCN(Cc3ccccc3)CC2)c1 (centres undefined)', 'A498 renal', 'inactive'),
  ('CCCSc1ccc2nc(NC(=O)OC)[nH]c2c1', 'A498 renal', 'active'),
  ('Cc1nc(/N=C(\N)NC(=O)Nc2cccc([N+](=O)[O-])c2)sc1C', 'A498 renal', 'inactive'),
  ('COc1ccc(C2CC(c3ccc(Cl)cc3)=NN2/C=C2\SC(=S)N(NC(=O)Cc3ccccc3Nc3c(Cl)cccc3Cl)C2=O)cc1 (centres undefined)', 'A498 renal', 'inactive'),
  ('COc1cc(/C=C/C(=O)c2c(C)oc3nc[nH]c(=O)c23)cc(OC)c1OC', 'A498 renal', 'inactive');

Query block: Status in this test for `NS(=O)(=O)c1ccc(CN=C2NC(=O)S/C2=C\c2ccc(Br)cc2)cc1` ?
Result block: inactive

Query block: Status in this test for CCn1c(O)c(/C=N/NC(=O)C(C)c2ccc(CC(C)C)cc2)sc1=S (centres undefined) ?
Result block: inactive

Query block: Status in this test for `COc1ccc2cc(-c3nn(-c4ccc(C(=O)O)cc4)cc3CO)ccc2c1` ?
Result block: inactive

Query block: Status in this test for `CN1CCN(c2ccc3nc(-c4ccc(OCCCCN5CCN(CCCCN6C(=O)c7cccc8cccc(c78)C6=O)CC5)cc4)[nH]c3c2)CC1` ?
Result block: inactive

====

# Test system: K-562 leukemia
# assay_method_text: NCI-60 one-dose screen, 48 h (100 = growth as untreated, 0 = no growth, -100 = all killed)
# run_parameters: 10 µM unless noted
About 83,000 compounds went through this panel and 20% of them were active in at least one assay; those are over-represented in the sample as a whole. The source made the active and inactive calls. Rule for the calls: active = growth percent below 10; inactive = the rest.
parameter: growth

Use the examples below as a reference point.
INSERT INTO results (compound, target_under_test, experimental_result) VALUES
  ('CC(C)CC1C(=O)N2CCC[C@H]2C2(O)O[C@](NC(=O)C3C=C4c5cccc6[nH]c(Br)c(c56)C[C@H]4N(C)C3)(C(C)C)C(=O)N12 (some centres undefined)', 'K-562 leukemia', '34.5% (inactive)'),
  ('CN(C)CCN1C(=O)c2cccc3c(N)ccc(c23)C1=O', 'K-562 leukemia', '2.08% (active)');

# evaluate next
Query block: Please indicate growth recorded for `Cc1nc(/N=C(\N)NC(=O)Nc2cccc([N+](=O)[O-])c2)sc1C`
Result block: 14.3% (inactive)
